System: A498 renal
Test: NCI tumour cell line growth inhibition, 384-well format
Numbered stars: 1 amine (or outer) side, 2 acyl side, 3 side chain; on linkers, the order of the positions; unused ones are H or OH. Bridge positions count the residues as written; N and C are the ends. Square brackets hold non-standard residues; d marks the D form. Peptide text beside a SMILES is read from it. I, II: the chains in the order shown. Actinocin(9to1) = Cc1c2oc3c(C)ccc(C(=O)[*:1])c3nc-2c(C(=O)[*:2])c(N)c1=O; aThr = C[C@H](O)[C@H](N)C(=O)O; NMeV = CN[C@H](C(=O)O)C(C)C; Sar = CNCC(=O)O
property.name: TGI (µM)

>  <molecule>
C[C@]12CC[C@@H]3c4ccc(OC(=O)N(CCCl)CCCl)cc4CC[C@H]3[C@@H]1CC[C@@H]2OP(=O)(O)O

>  <relation.sign>
>

>  <observed.measurement>
100

$$$$
>  <molecule>
Cc1cnc(-c2ccc(-c3ccc(NC(=O)Nc4c(F)cc(F)cc4F)cc3F)c3c2C(=O)NC3)[nH]1

>  <relation.sign>
=

>  <observed.measurement>
1.16

$$$$
>  <molecule>
COc1cc(N2CCC(N)CC2)ccc1Nc1ncc(Cl)c(-c2c[nH]c3ccccc23)n1

>  <relation.sign>
=

>  <observed.measurement>
1.33

$$$$
>  <molecule>
COCCn1c2c([n+](Cc3cnccn3)c1C)C(=O)c1ccccc1C2=O

>  <relation.sign>
=

>  <observed.measurement>
1.23

$$$$
>  <molecule>
Cc1c2oc3c(C)ccc(C(=O)N[C@@H]4C(=O)N[C@H](C(C)C)C(=O)N5CCC[C@H]5C(=O)N(C)CC(=O)N(C)[C@@H](C(C)C)C(=O)O[C@H]4C)c3nc-2c(C(=O)N[C@@H]2C(=O)N[C@H](C(C)C)C(=O)N3CCC[C@H]3C(=O)N(C)CC(=O)N(C)[C@@H](C(C)C)C(=O)O[C@H]2C)c(N)c1=O (I: [aThr][dV]P[Sar][NMeV] / II: [aThr][dV]P[Sar][NMeV]; ester I:1-I:C, II:1-II:C; linker I:N-II:N via Actinocin(9to1))

>  <relation.sign>
<

>  <observed.measurement>
0.0165

$$$$

Ref: PubChem BioAssay (NCI)
